Target: NANOLUC® Luciferase (Oplophorus gracilirostris, UniProt Q9GV45, A31E/A60N/A81I/F95D/I117V/K70R/L54V/L99Q/M102K/N193R/P142E/Q151K/Q38R/Q45L/V71I/Y165I)
Sequence (Q9GV45 28-196 with tags or gaps with the stated changes limits assumed): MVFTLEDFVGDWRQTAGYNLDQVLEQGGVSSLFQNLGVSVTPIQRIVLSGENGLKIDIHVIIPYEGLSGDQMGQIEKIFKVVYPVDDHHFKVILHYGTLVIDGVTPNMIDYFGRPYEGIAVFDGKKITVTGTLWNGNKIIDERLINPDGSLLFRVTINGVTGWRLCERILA
Test: Luminescence assay: substrate titration with purified NANOLUC Luciferase (RLU, signal half-life, Km)
Format: biochemical
Conditions: 100 μM substrate; initial light output three minutes after substrate addition; relative to furimazine set to 1.0
Experimental: Each compound to be screened was dissolved in DMSO (5 mM) and then further diluted to 100 μM in NANO-GEO® Luciferase Assay Buffer. […] Initial light output for each substrate was measured in a GLOMAX®-Multi+ luminometer three minutes after substrate addition and then at five minute intervals as a means to determine signal half-life. Signal half-life was calculated using GraphPad Prism One Phase Decay regression and Km and Vmax were calculated using GraphPad Prism using Michaelis-Menten regression. […]
The threshold is inclusive: RLU (@100 μM) of exactly 0.8 counts as 1; values below receive -1.

molecule	qualitative_label
Nc1ccc(F)c(-c2cn3c(=O)c(Cc4ccco4)nc-3c(Cc3ccccc3)[nH]2)c1 [JRW-1411]	-1
O=c1c(Cc2ccco2)nc2c(Cc3ccccc3)[nH]c(-c3ccc(Cl)c(O)c3)cn1-2 [JRW-1483]	-1
Nc1cccc(-c2cn3c(=O)c(Cc4ccco4)nc-3c(Cc3ccccc3)[nH]2)c1F [JRW-1482]	1
COc1cccc(Cc2nc3c(Cc4ccccc4)[nH]c(-c4cccc(O)c4)cn-3c2=O)c1 [JRW-1047]	-1
Nc1cccc(-c2cn3c(=O)c(Cc4ccc(F)cc4)nc-3c(Cc3ccccc3)[nH]2)c1F [JRW-1635]	1
O=c1c(Cc2ccc(C(F)(F)F)o2)nc2c(Cc3ccccc3)[nH]c(-c3cccc(O)c3F)cn1-2 [JRW-1619]	1
O=c1c(Cc2ccc3c(c2)OCO3)nc2c(Cc3ccccc3)[nH]c(-c3cccc(O)c3)cn1-2 [JRW-0777]	-1

###

Target: NANOLUC® Luciferase (Oplophorus gracilirostris, UniProt Q9GV45, A31E/A60N/A81I/F95D/I117V/K70R/L54V/L99Q/M102K/N193R/P142E/Q151K/Q38R/Q45L/V71I/Y165I)
Assay: Luminescence assay: substrate titration with purified NANOLUC Luciferase (RLU, signal half-life, Km)
Type: biochemical
Conditions: 100 μM substrate; initial light output three minutes after substrate addition; relative to furimazine set to 1.0

smiles_record	RLU (@100 μM)
O=c1c(Cc2ccco2)nc2c(Cc3ccccc3)[nH]c(-c3cc(O)cc(F)c3)cn1-2	1.0
O=c1c(Cc2ccc(F)cc2)nc2c(Cc3ccccc3)[nH]c(-c3cccc(O)c3)cn1-2	0.88
O=c1c(Cc2ccco2)nc2c(Cc3ccccc3)[nH]c(-c3cccc(O)c3F)cn1-2	1.2
O=c1c(Cc2cccs2)nc2c(Cc3ccccc3)[nH]c(-c3cccc(O)c3F)cn1-2	0.84
O=c1c(Cc2ccco2)nc2c(Cc3ccccc3)[nH]c(-c3cccc(O)c3Cl)cn1-2	0.31
O=c1c(Cc2ccco2)nc2c(Cc3ccccc3)[nH]c(-c3cc(O)ccc3Cl)cn1-2	0.4
Nc1cc(F)cc(-c2cn3c(=O)c(Cc4ccco4)nc-3c(Cc3ccccc3)[nH]2)c1	0.73
O=c1c(Cc2ccco2)nc2c(Cc3ccc(F)cc3)[nH]c(-c3cccc(O)c3)cn1-2	0.049
O=c1c(Cc2ccco2)nc2c(Cc3ccccc3)[nH]c(-c3cc(O)cc(Cl)c3)cn1-2	0.43
O=c1c(Cc2ccco2)nc2c(Cc3ccccc3)[nH]c(-c3cc(O)ccc3F)cn1-2	1.0

###

Molecular target: NANOLUC® Luciferase (Oplophorus gracilirostris, UniProt Q9GV45, A31E/A60N/A81I/F95D/I117V/K70R/L54V/L99Q/M102K/N193R/P142E/Q151K/Q38R/Q45L/V71I/Y165I)
Test: Luminescence assay: substrate titration with purified NANOLUC Luciferase (RLU, signal half-life, Km)
Assay type: biochemical
Conditions: 100 μM substrate; initial light output three minutes after substrate addition; relative to furimazine set to 1.0
RLU (@100 μM) for assorted molecules
test_readout: RLU (@100 μM)

molecule	obs_value
Cc1ccc(Cc2nc3c(Cc4ccccc4)[nH]c(-c4cccc(O)c4)cn-3c2=O)o1 [JRW-1056]	1.1
O=c1c(Cc2ccco2)nc2c(Cc3ccccc3)[nH]c(-c3ccccc3)cn1-2 [Furimazine, reference compound]	1
Cc1c(N)cccc1-c1cn2c(=O)c(Cc3ccco3)nc-2c(Cc2ccccc2)[nH]1 [JRW-1642]	0.04
O=c1c(Cc2ccco2)nc2c(Cc3ccccc3F)[nH]c(-c3cccc(O)c3F)cn1-2 [JRW-1668]	1.5
Nc1cc(-c2cn3c(=O)c(Cc4ccco4)nc-3c(Cc3ccccc3)[nH]2)ccc1F [JRW-1536]	0.08
Nc1cccc(-c2cn3c(=O)c(Cc4ccc(C(F)(F)F)o4)nc-3c(Cc3ccccc3)[nH]2)c1F [JRW-1610]	0.71
O=c1c(Cc2cccs2)nc2c(Cc3ccccc3)[nH]c(-c3cccc(O)c3)cn1-2 [JRW-1040]	0.8
Nc1cccc(-c2cn3c(=O)c(Cc4ccco4)nc-3c(Cc3ccccc3F)[nH]2)c1F [JRW-1667]	2.1
O=c1c(Cc2ccco2)nc2c(Cc3ccccc3)[nH]c(-c3cccc([N+](=O)[O-])c3)cn1-2 [JRW-1424]	0.14
Cc1cccc(Cc2[nH]c(-c3cccc(O)c3F)cn3c(=O)c(Cc4ccco4)nc2-3)c1 [JRW-1370]	0.036
Nc1cccc(-c2cn3c(=O)c(Cc4ccco4)nc-3c(Cc3c(F)cccc3F)[nH]2)c1F [JRW-1747]	2.1
COCc1cccc(Cc2nc3c(Cc4ccccc4)[nH]c(-c4cccc(O)c4)cn-3c2=O)c1 [JRW-0373]	0.27
Cc1cccc(Cc2[nH]c(-c3cccc(O)c3)cn3c(=O)c(Cc4ccco4)nc2-3)c1 [JRW-1368]	0.032
COCc1cccc(Cc2nc3c(Cc4ccccc4)[nH]c(-c4cccc(O[Si](C)(C)C(C)(C)C)c4)cn-3c2=O)c1 [JRW-0372]	0.00033
Cc1c(O)cccc1-c1cn2c(=O)c(Cc3ccco3)nc-2c(Cc2ccccc2)[nH]1 [JRW-1645]	0.07
COc1ccc(Cc2nc3c(Cc4ccccc4)[nH]c(-c4cccc(O)c4)cn-3c2=O)cc1 [JRW-1052]	0.4
